Molecular target: human TLR7 (Homo sapiens, UniProt Q9NYK1)
Sequence (Q9NYK1 27-1049): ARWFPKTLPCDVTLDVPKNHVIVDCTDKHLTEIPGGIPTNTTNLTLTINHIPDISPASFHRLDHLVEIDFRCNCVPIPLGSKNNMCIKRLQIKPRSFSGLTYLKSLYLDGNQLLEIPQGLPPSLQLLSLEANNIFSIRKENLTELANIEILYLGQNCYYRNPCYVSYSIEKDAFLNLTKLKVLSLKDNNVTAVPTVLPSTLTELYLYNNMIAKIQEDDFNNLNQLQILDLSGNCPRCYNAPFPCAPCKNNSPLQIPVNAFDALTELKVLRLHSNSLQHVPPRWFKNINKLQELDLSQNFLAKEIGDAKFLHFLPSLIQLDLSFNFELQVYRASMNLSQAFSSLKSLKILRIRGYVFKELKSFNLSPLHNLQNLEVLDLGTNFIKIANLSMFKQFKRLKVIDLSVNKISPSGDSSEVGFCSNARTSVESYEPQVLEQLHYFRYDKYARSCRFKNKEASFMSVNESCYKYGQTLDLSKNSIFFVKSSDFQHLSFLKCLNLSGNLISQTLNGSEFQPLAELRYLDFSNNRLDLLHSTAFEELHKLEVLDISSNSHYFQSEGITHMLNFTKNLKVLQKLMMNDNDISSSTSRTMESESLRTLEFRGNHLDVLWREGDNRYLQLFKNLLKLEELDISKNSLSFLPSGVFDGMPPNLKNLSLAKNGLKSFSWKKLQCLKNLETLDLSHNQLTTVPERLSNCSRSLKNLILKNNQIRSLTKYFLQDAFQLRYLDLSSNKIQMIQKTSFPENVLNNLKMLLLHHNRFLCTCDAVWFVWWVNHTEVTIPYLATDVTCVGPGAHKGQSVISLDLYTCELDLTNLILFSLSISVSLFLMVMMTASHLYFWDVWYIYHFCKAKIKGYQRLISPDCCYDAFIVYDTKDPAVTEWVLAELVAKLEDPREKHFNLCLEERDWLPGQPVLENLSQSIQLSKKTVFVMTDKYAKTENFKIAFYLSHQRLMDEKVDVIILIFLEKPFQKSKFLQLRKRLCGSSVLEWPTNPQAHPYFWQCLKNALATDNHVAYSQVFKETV
Test: HEK293-Blue-hTLR-7 cells assay (SEAP reporter, NF-κB activation)
Format: cell-based
Settings: HEK293-Blue-hTLR-7 cells, 20 hrs incubation, SEAP reporter; prodrug; read-out: HEK293-hTLR-7 EC50 (Prodrug)
From the text: HEK293-Blue-hTLR-7 Cells Assay A stable HEK293-Blue-hTLR-7 cell line was purchased from InvivoGen (Cat. #: hkb-ht1r7, San Diego, Calif., USA). These cells were designed for studying the stimulation of human TLR7 by monitoring the activation of NF-κB. A SEAP (secreted embryonic alkaline phosphatase) reporter gene was placed under the control of the IFN-β minimal promoter fused to five NF-κB and AP-1-binding sites. […]

>  <Smi>
CCCS(=O)(=O)c1nc(N)c2c(n1)n(Cc1ccccc1)c(=O)n2C(=O)N(C)CC

>  <EC50 (µM)>
10.9

$$$$
>  <Smi>
CCCN(C)C(=O)n1c(=O)n(Cc2ccc(Br)cc2)c2nc(S(=O)(=O)CC)nc(N)c21

>  <EC50 (µM)>
13.1

$$$$
>  <Smi>
CCCS(=O)(=O)c1nc(N)c2c(n1)n(Cc1ccc(Cl)cc1)c(=O)n2C(=O)N(C)CC

>  <EC50 (µM)>
3.2

$$$$
>  <Smi>
CCN(C)C(=O)n1c(=O)n(Cc2ccc(F)cc2)c2nc(S(=O)(=O)CC)nc(N)c21

>  <EC50 (µM)>
494

$$$$
>  <Smi>
CCS(=O)(=O)c1nc(N)c2c(n1)n(Cc1ccc(Cl)cc1)c(=O)n2C(=O)N(C)C

>  <EC50 (µM)>
2.3

$$$$
>  <Smi>
CCN(C)C(=O)n1c(=O)n(Cc2ccc(Cl)cc2)c2nc(S(=O)(=O)CC)nc(N)c21

>  <EC50 (µM)>
18.2

$$$$
>  <Smi>
CCN(C)C(=O)n1c(=O)n(Cc2ccccc2)c2nc(S(=O)(=O)CC)nc(N)c21

>  <EC50 (µM)>
104

$$$$
